Target: skeletal myofibrils (myosin ATPase)
Experiment: Skeletal Myofibril ATPase Assay
Format: biochemical
Conditions: Table 4B
Readings of IC50 for the listed compounds

The examples below pair each entry with its known result.
[[record]]
smiles_string = "CCNC(=O)Cn1nc(-c2ccc(OC(F)F)cc2)ccc1=O"
assay_system = "skeletal myofibrils (myosin ATPase)"
quantity_kind = "IC50"
reported_measurement = "< 10 µM"

[[record]]
smiles_string = "O=C(Cn1nc(-c2ccc(OCC(F)(F)F)cc2)ccc1=O)NCc1ccncc1Cl"
assay_system = "skeletal myofibrils (myosin ATPase)"
quantity_kind = "IC50"
reported_measurement = "> 100 µM"

[[record]]
smiles_string = "CC(C)NC(=O)Cn1nc(-c2ccc(OC(F)(F)F)cc2)ccc1=O"
assay_system = "skeletal myofibrils (myosin ATPase)"
quantity_kind = "IC50"
reported_measurement = "< 10 µM"


Param item = O=C(Cn1nc(-c2ccc(OC(F)F)cc2)ccc1=O)NCc1ccccc1Cl ; retrieve measured IC50.
< 10 µM

Likewise for CCNC(=O)Cn1nc(-c2ccc(OC(F)F)cc2)c(C)cc1=O ?
10 to 100 µM

Now give it for O=C(Cn1nc(-c2ccc(OC(F)F)cc2)ccc1=O)NCC(F)F too.
10 to 100 µM

====

Biological target: skeletal myofibrils (myosin ATPase)
Test: Skeletal Myofibril ATPase Assay
Format: biochemical
Details: Table 4A
Below: a set of entries, each annotated with reported IC50.

[[record]]
smiles_string = "CCNC(=O)Cn1nc(-c2ccc(OC3COC3)nc2)ccc1=O"
reported_measurement = "> 100 µM"

[[record]]
smiles_string = "CCNC(=O)Cn1nc(-c2ccc(N3CC(F)(F)C3)nc2)ccc1=O"
reported_measurement = "10 to 100 µM"

[[record]]
smiles_string = "O=C(Cn1nc(-c2ccc(OC(F)F)nc2)ccc1=O)NC12CC(C1)C2"
reported_measurement = "10 to 100 µM"


What reported IC50 corresponds to CCNC(=O)Cn1nc(-c2ccc(NC34CC(C)(C3)C4)nc2)ccc1=O on skeletal myofibrils (myosin ATPase)?
< 10 µM

Please answer likewise for CCNC(=O)Cn1nc(-c2ccc(OCC3COC3)nc2)ccc1=O
10 to 100 µM

Next molecule: CCNC(=O)Cn1nc(-c2ccc(OCCN(C)C)nc2)ccc1=O
> 100 µM

Repeat with CCNC(=O)Cn1nc(-c2ccc(OC(F)F)nc2)ccc1=O
< 10 µM

Another molecule to check: CCNC(=O)Cn1nc(-c2ccc(NC34CC(CO)(C3)C4)nc2)ccc1=O
10 to 100 µM

Continue with CCNC(=O)Cn1nc(-c2ccc(N3CCC34COC4)nc2)ccc1=O
10 to 100 µM

Now give it for CCNC(=O)Cn1nc(-c2ccc(N(C)C3CCC3)nc2)ccc1=O too.
< 10 µM

Try this molecule next: O=C(Cn1nc(-c2cnc(NC34CC(C3)C4)nc2)ccc1=O)NC1CCC1
< 10 µM

Item: O=C(Cn1nc(-c2ccc(OC(F)F)nc2)ccc1=O)NCc1cccc(Cl)c1
10 to 100 µM

====

Target: skeletal myofibrils (myosin ATPase)
Experiment: Skeletal Myofibril ATPase Assay
Format: biochemical
Settings: Table 4A
Description: FIG. 7 depicts the buffer preparation procedures of Buffer A and Buffer B for the skeletal myofibril ATPase assay described in Example 12. Buffers were stored on ice until use. Example 12: Skeletal Myofibril ATPase Assay Overview: Myosin ATPase activity is assessed by using a coupled reaction system, in which ADP generated by the myosin ATPase function is coupled to the disappearance of NADH through the pyruvate kinase/lactate dehydrogenase (PK-LDH) system. […]
QUANTITY_KIND: IC50

// solved cases for IC50 follow
[[record]]
compound = "O=C(Cn1nc(-c2ccc(NC34CC(C3)C4)nc2)ccc1=O)N1CCC1 [Compound I-39]"
reported_measurement = "10 to 100 µM"

[[record]]
compound = "CCNC(=O)Cn1nc(-c2ccc(NC)nc2)ccc1=O [Compound I-47]"
reported_measurement = "< 10 µM"

[[record]]
compound = "CCNC(=O)Cn1nc(-c2ccc(N3CC4CC(C3)O4)nc2)ccc1=O [Compound I-43]"
reported_measurement = "10 to 100 µM"

[[record]]
compound = "CC1(NC(=O)Cn2nc(-c3ccc(OC(F)F)nc3)ccc2=O)CCC1 [Compound I-15]"
reported_measurement = "10 to 100 µM"

[[record]]
compound = "O=C(Cn1nc(-c2ccc(OC(F)F)nc2)ccc1=O)N[C@H]1CC12CC2 [Compound I-17]"
reported_measurement = "10 to 100 µM"

[[record]]
compound = "CCNC(=O)Cn1nc(-c2ccc(NC3CCOCC3)nc2)ccc1=O [Compound I-45]"
reported_measurement = "> 100 µM"


The record that follows has no IC50 shown yet.
Need IC50, item CCNC(=O)Cn1nc(-c2ccc(OC3CC(F)(F)C3)nc2)ccc1=O [Compound I-75]
10 to 100 µM

Numbers sourced from patent US12415794B2.
